This collection of values is drawn from paper doi:10.1101/2025.10.30.685691v1.

molecular target: BaPDH (WT-BaPDH, full-length ACT-containing prephenate dehydrogenase) (Bacillus anthracis, UniProt Q81P63)
Sequence (Q81P63 1-378 limits assumed): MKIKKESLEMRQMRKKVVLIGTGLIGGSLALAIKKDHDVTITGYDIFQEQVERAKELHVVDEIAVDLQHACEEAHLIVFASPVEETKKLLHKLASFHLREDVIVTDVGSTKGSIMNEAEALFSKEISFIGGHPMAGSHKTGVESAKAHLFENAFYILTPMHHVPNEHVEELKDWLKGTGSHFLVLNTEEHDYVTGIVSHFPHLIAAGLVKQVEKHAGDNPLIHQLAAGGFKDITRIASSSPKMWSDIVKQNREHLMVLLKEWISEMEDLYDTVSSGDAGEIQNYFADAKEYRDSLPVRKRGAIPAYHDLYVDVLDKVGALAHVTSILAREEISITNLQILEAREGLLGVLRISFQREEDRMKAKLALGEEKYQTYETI
Endpoint: pKi
Interpret pKi as the negative base-10 log of the concentration measured in mol/L.

Recorded pKi for N[C@@H](Cc1ccc(O)cc1)C(=O)O , please?
5.82
